Species on record: Bos taurus
Assay: Displacement of [3H]colchicine from bovine brain tubulin at 5 uM
recorded_endpoint: inhibition (%)
Kindly provide the numeric value in % only, without the unit symbol.

Solved entries:
INSERT INTO results (sample_smiles, reported_value) VALUES
  ('COc1cc(C(=O)c2sc3c(OC)cccc3c2C)cc(OC)c1OC', 87),
  ('COc1cc(C(=O)c2cc3c(OC)cccc3s2)cc(OC)c1OC', 81),
  ('CCOc1ccc2c(C)c(C(=O)c3cc(OC)c(OC)c(OC)c3)sc2c1', 75),
  ('COc1ccc2c(C)c(C(=O)c3cc(OC)c(OC)c(OC)c3)sc2c1', 92),
  ('COc1cc(C(=O)c2sc3cccc(OC)c3c2C)cc(OC)c1OC', 93);

## Task Item under review: COc1cc(C(=O)c2sc3ccccc3c2C)cc(OC)c1OC . Reported inhibition?
## Result 88

## Task Here is the next molecule: COc1cc(C(=O)c2sc3cc(F)ccc3c2C)cc(OC)c1OC
## Result 80

## Task Here is the next molecule: COc1cc(C(=O)c2cc3cccc(OC)c3s2)cc(OC)c1OC
## Result 88
